B1: HDV Ribozyme (parent)
chain: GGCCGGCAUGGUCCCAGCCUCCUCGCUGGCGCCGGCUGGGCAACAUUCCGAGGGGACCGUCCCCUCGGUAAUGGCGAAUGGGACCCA

Variants of: B1
Experiment: self-cleavage, relative activity (ratio to wild type); higher = more cleavage; co-transcriptional
OBSERVATION_TYPE: self-cleavage

// below: answered variants
* C36A G59A | 0.164
* C21G | 0.0702

--- query ---
Kindly note the recorded self-cleavage for G54C A71U , which is 0.731
